Values compiled from ChEMBL document CHEMBL2218924.

target: Serine/threonine-protein kinase MARK1 (Homo sapiens) (UniProt Q9P0L2); settings: at 10 µM
Sequence (Q9P0L2 whole entry, looked up): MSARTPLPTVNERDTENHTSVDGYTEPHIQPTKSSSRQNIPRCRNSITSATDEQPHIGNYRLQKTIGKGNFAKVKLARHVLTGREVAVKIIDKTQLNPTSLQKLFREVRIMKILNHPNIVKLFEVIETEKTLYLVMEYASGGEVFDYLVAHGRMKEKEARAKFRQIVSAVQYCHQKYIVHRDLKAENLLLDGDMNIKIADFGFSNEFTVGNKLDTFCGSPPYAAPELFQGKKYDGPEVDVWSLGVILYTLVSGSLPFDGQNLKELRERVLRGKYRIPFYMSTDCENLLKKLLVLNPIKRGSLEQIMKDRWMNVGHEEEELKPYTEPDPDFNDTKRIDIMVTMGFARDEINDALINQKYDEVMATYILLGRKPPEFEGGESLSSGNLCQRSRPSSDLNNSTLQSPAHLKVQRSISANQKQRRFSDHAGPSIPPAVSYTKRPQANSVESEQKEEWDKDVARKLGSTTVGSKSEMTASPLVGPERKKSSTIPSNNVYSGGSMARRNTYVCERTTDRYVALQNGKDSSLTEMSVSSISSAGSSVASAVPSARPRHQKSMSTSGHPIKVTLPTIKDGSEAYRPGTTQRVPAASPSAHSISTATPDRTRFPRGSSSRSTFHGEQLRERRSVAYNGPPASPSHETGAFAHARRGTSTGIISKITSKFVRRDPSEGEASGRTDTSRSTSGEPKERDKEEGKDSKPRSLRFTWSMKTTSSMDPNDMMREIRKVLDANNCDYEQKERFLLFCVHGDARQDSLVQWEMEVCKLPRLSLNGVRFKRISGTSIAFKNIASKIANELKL
Kindly note that classification relies on residual activity with these boundaries: interval 1: < 20%; interval 2: ≥ 20% and < 80%; interval 3: ≥ 80%

Q. Could you place CC(C)(C)c1nc2c3ccc(F)cc3c3c(=O)[nH]ccc3c2[nH]1 in its proper category? Many thanks.
A. interval 1

Q. Could you place COc1cc2nccc(Oc3ccc(NC(=S)NC(=O)c4ccccc4C)cc3)c2cc1OC in its proper category? Many thanks.
A. interval 2

Q. Could you place O=C1Cc2c([nH]c3ccc(Br)cc23)-c2ccccc2N1 in its proper category? Many thanks.
A. interval 1

Q. Could you place O=C(c1ccccc1)c1ccc(N2CCOCC2)cc1O in its proper category? Many thanks.
A. interval 3

Q. Could you place COc1ccc(CNC(=O)Nc2ncc([N+](=O)[O-])s2)cc1 in its proper category? Many thanks.
A. interval 2

Q. Could you place O=C1NC(=O)c2c1c1c3ccccc3[nH]c1n1cncc21 in its proper category? Many thanks.
A. interval 2

Q. Could you place CCCC(=O)Oc1ccc2[nH]c(C(=O)c3cc4ccccc4[nH]3)cc2c1 in its proper category? Many thanks.
A. interval 3

Q. Could you place O=C(c1cc2cc(O)ccc2[nH]1)c1cc2cc(O)ccc2[nH]1 in its proper category? Many thanks.
A. interval 1

Q. Could you place Cn1c2ccccc2c2c3c(c4c5ccccc5n(CCC#N)c4c21)CNC3=O in its proper category? Many thanks.
A. interval 1

Q. Could you place CSc1nc(-c2ccc(F)cc2)c(-c2ccnc(NC(C)c3ccccc3)c2)[nH]1 (stereo not given) in its proper category? Many thanks.
A. interval 2

Q. Could you place Nc1ncnc2c1c(-c1ccc(Oc3ccccc3)cc1)cn2C1CCCC1 in its proper category? Many thanks.
A. interval 2

====

target: Casein kinase I isoform delta (Homo sapiens); conditions: at 1 µM
Description: Millipore: Percentage of residual kinase activity of CSNK1D at 1uM relative to control. Control inhibitor: Jnk Inhibitor II at 100.0uM. Buffer: 8 mM MOPS pH 7.0, 0.2 mM EDTA
For each entry below, report its residual activity value.
Give the quantity in %, number only.

Q. Return reported residual activity; argument: N#C/C(=C1/Nc2ccccc2S1)c1ccnc(NCCc2cccnc2)n1
A. 52

Q. Return reported residual activity; argument: COc1cc2ncnc(Nc3cccc(Cl)c3)c2cc1OC
A. 87

Q. Return reported residual activity; argument: Nc1ncnc2c1cnn2-c1ccccc1
A. 85

Q. Return reported residual activity; argument: O=C(Nc1nc2ccccc2n1CCN1CCOCC1)c1cccc([N+](=O)[O-])c1
A. 64

Q. Return reported residual activity; argument: O=C(O)/C=C/c1cc(Br)c(Br)c(Br)c1Br
A. 56

Q. Return reported residual activity; argument: CC(C)[C@H](CO)Nc1nc(Nc2cc(N)cc(Cl)c2)c2ncn(C(C)C)c2n1
A. 74

Q. Return reported residual activity; argument: O=C(c1ccccc1)c1ccc(N2CCOCC2)cc1O
A. 88

Q. Return reported residual activity; argument: N#C/C(=C\c1ccc(O)c(O)c1)C(=O)NCc1ccccc1
A. 80

Q. Return reported residual activity; argument: NC(=O)Nc1sc(-c2ccc(F)cc2)cc1C(N)=O
A. 71

Q. Return reported residual activity; argument: CCN(CC)CCNC(=O)c1c(C)[nH]c(/C=C2\C(=O)Nc3ccc(Cl)cc32)c1C
A. 23

Q. Return reported residual activity; argument: COc1cc2c(cc1OC)-c1n[nH]c(Nc3cccc(F)c3)c1C2
A. 76
